Values compiled from PubChem BioAssay (NCI).

Recorded growth for the following molecules
Tested on: UO-31 renal
MEASUREMENT PROTOCOL: NCI-60 one-dose screen, 48 h (100 = growth as untreated, 0 = no growth, -100 = all killed)
MEASUREMENT SETUP: 10 µM unless noted
About 83,000 compounds went through this panel and 20% of them were active in at least one assay; those are over-represented in the sample as a whole. Activity calls are given as the source filed them. Rule for the calls: active = growth percent below 10; inactive = the rest.

*Q* Return reported growth; argument: CCCCCC#CC(=O)O
*A* 81.5% (inactive)

*Q* If you can, please state the reported growth value of Cc1ccccc1CC(N)C(=O)O (stereo not given) .
*A* 91.7% (inactive)

*Q* # lookup: growth of CC1(c2ccccc2)CO1 (stereo not given)
*A* 85.8% (inactive)

*Q* Form field: reported growth of C=C(C)COc1ccc(C(C)(C)C)cc1
*A* 95.3% (inactive)

*Q* Would you kindly share the measured growth for Cc1cc(Cc2ccccc2)c(O)c(Cc2ccccc2)c1 ?
*A* 64.6% (inactive)
